target: complement C5a receptor 1 (C5aR1) (Homo sapiens, UniProt P21730); construct: β-galactosidase fragment (PathHunter enzyme complementation); host or cells: CHO-K1 (PathHunter CHO-K1 C5aR1 β-arrestin cell line); test: β-arrestin recruitment via C5aR1 activation in live CHO-K1 cells (PathHunter), antagonist mode; type: cell-based; conditions: antagonist mode; recombinant hC5a (EC90) as competing natural agonist; live CHO-K1 cells; read-out: [Antagonist] B-arrestin2 recruitment: Average IC50
Sequence (P21730 whole entry, the tested form may be a part): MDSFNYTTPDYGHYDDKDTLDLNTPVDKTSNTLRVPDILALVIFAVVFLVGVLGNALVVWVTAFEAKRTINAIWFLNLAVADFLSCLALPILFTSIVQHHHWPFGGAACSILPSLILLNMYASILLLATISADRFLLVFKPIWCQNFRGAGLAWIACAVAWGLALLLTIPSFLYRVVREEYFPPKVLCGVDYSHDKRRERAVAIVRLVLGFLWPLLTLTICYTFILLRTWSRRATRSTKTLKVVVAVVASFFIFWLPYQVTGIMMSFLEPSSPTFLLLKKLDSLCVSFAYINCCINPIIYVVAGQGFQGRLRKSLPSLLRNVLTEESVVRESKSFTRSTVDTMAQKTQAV
pIC50: −log10 of the molar value.
Measurement kind: pIC50

Look over these answered cases.
[[record]]
compound = "Cc1cccc(F)c1N1CCC(c2cc3cncnc3n(Cc3nccnc3C(F)(F)F)c2=O)CC1"
result = "4.00 to 5.30"

[[record]]
compound = "Cc1cnc2cc([C@H]3CC[C@H](c4ccccc4C(F)(F)F)CC3)c(=O)n(Cc3ncccc3C(F)(F)F)c2n1"
result = "> 6.30"

[[record]]
compound = "Cc1cnc2cc(C3CCN(c4c(C)cccc4F)CC3)c(=O)n(Cc3ccccc3OC(F)(F)F)c2n1"
result = "5.30 to 6.30"

[[record]]
compound = "Cc1cnc2cc([C@H]3CC[C@@H](c4c(C)ccnc4F)CC3)c(=O)n(Cc3nccnc3C(F)F)c2n1 [146A]"
result = "4.00 to 5.30"


pIC50 lookup needed for Cc1cccc(F)c1N1CCC(c2cc3nccnc3n(Cc3ncccc3C(F)(F)F)c2=O)CC1 , thanks.
> 6.30

Look up pIC50 for this compound: Cc1ccnc(F)c1N1CCC(c2cc3nccnc3n(Cc3nccnc3C(F)(F)F)c2=O)CC1
> 6.30
